Biological target: CYP1A2 (Homo sapiens)
Sequence (P05177 1-516): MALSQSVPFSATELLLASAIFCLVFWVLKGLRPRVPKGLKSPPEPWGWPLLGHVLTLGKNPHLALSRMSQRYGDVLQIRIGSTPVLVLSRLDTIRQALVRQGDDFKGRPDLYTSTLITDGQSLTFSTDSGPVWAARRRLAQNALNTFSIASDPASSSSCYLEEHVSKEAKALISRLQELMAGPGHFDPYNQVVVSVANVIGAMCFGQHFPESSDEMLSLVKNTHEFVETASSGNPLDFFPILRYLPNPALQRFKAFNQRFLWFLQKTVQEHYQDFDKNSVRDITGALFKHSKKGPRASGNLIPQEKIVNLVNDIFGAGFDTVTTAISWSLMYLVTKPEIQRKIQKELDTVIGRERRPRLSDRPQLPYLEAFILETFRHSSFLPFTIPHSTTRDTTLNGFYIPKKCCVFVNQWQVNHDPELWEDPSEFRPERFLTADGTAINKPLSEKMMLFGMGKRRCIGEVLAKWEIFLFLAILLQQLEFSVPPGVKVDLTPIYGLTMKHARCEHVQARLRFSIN
measure: Ki (µM)
Give the value, in units of µM, as a plain number.

### Prompt Under CYP1A2 (Homo sapiens): Ki value of COc1c(O)c(C)cc2c1C(=O)c1c(O)cccc1C2=O ?
### Response 0.11

====

target: rCYP1A1 (Homo sapiens); construct: purchased SPMED (Busan, Republic of Korea); experiment: Recombinant CYP1A1 inhibition with 9-cis-retinal as substrate; format: biochemical; details: substrate 9-cis-retinal
Sequence (P04798 whole entry): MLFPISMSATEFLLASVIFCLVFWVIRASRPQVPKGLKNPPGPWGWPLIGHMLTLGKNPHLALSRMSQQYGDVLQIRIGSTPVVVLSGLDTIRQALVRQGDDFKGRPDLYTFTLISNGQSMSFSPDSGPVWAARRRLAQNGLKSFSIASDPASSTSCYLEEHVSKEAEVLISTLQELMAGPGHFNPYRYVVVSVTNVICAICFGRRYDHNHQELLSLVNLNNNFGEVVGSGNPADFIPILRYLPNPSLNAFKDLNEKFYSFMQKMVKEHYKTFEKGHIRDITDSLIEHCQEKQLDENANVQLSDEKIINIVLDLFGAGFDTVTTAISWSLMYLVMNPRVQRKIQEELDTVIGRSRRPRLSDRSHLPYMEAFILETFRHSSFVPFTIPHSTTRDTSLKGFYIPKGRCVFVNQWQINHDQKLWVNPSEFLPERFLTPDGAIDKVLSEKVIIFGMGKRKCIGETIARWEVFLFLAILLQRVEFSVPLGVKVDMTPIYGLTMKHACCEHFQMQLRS
pIC50: −log10 of the molar value.
measure: pIC50

### Prompt Give the measured pIC50 of COc1c(O)c(C)cc2c1C(=O)c1c(O)cccc1C2=O .
### Response < 5.00

====

molecular target: CYP2E1 (Homo sapiens); construct: Mixtures of pooled HLM, P450 substrates, and obtusifolin; tissue XenoTech XTreme 200; host or cells: pooled human liver microsomes; test: in vitro; format: biochemical; conditions: human, microsomes
Sequence (P05181 whole entry): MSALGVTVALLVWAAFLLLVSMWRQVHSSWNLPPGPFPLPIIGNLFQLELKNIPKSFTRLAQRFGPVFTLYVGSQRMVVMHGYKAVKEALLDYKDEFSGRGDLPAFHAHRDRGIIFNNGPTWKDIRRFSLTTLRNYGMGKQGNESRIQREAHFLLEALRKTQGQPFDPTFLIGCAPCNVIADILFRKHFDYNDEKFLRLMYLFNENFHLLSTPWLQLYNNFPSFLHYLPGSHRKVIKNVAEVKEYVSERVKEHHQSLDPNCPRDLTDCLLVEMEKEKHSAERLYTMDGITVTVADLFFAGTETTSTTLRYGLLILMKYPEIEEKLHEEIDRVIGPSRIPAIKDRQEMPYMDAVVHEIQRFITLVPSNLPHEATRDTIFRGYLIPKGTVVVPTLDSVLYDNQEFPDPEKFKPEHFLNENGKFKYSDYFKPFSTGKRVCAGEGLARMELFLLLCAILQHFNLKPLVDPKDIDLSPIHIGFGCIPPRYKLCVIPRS
measure: inhibition at 15 min, 0.5 µM
Note: a bare number is incomplete; add the unit.

### Prompt Given COc1c(O)c(C)cc2c1C(=O)c1c(O)cccc1C2=O , state its recorded inhibition at 15 min, 0.5 µM.
### Response 30.7%

====

target: recombinant CYP1A2 (rCYP1A2) (Homo sapiens); test: Inhibition of CYP1A2-mediated POD in recombinant CYP1A2; settings: rCYP1A2 10 pmol/mL; read-out: Ki, CYP1A2-mediated phenacetin O-deethylation
measure: Ki (nM)
// units = nM; emit number, no label

### Prompt Query: Ki; subject: COc1c(O)c(C)cc2c1C(=O)c1c(O)cccc1C2=O [Obtusifolin, obtusifolin]
### Response 210

====

Target sequence: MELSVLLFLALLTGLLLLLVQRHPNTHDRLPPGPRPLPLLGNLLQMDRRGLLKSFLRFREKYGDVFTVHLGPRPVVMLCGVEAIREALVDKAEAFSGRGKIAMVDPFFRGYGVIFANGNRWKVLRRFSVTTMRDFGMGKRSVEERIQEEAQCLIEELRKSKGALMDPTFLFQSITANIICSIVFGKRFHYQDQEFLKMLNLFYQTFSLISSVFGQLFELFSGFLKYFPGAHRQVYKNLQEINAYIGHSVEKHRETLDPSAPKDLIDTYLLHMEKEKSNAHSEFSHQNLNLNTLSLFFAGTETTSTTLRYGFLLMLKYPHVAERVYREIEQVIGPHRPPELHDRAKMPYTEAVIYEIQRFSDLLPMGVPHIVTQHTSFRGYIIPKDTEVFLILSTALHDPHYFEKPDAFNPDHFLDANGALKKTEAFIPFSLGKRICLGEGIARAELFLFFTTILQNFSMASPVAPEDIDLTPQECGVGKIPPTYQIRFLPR
pIC50: −log10 of the molar value.
measure: pIC50

### Prompt Item COc1c(O)c(C)cc2c1C(=O)c1c(O)cccc1C2=O has what recorded pIC50?
### Response < 4.30
